- experimental.system: Peptide 1: Biotin-…-[Tyr(PC)]-acid
- Sequence (peptide, as listed by the source): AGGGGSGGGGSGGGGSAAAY
- protocol.description: scFv ELISA
recorded.endpoint: OD450 (OD450)
Lab book: enter the figure in OD450, no units written.

Consider the binder PcOxP_DB04_D08 (scFv, V domains shown, scFv in periplasmic extract) VH: EVQLLESGGGLVQPGGSLRLSCAASGFTFSDHYMEWVRQAPGKGLEWVAASRNKANDYTTEYADSVKGRFTISRDNSKNTLYLQMNSLRAEDTAVYYCARDYYGSSYWYFDVWGQGTLVTVSS VL: DIQMTQSPSSLSASVGDRVTITCTASESLYSSKHKVHYLAWYQQKPGKAPKLLIYGASNRAIGVPSRFSGSGSGTDFTLTISSLQPEDFATYYCAQFYTYPLTFGGGTKVEIK . State its measured OD450.
1.6

Tell me OD450 reported for PcOxP_DB01_F04 (scFv, V domains shown, scFv in periplasmic extract) VH: EVQLLESGGGLVQPGGSLRLSCAASGFTFSSYYMEWVRQAPGKGLEWVAASRNKYNDYTTEYADSVKGRFTISRDNSKNTLYLQMNSLRAEDTAVYYCARDYYGSSYWYFDVWGQGTLVTVSS VL: DIQMTQSPSSLSASVGDRVTITCTASESLYSSKHKVHYLAWYQQKPGKAPKLLIYGAVNRYIGVPSRFSGSGSGTDFTLTISSLQPEDFATYYCAQFYRYPLTFGGGTKVEIK
0.36

Tell us which OD450 value is on record for PcOxP_DB02_B02 (scFv, V domains shown, scFv in periplasmic extract) VH: EVQLLESGGGLVQPGGSLRLSCAASGFTFSDYYMEWVRQAPGKGLEWVAASRNSGNDYTTEYADSVKGRFTISRDNSKNTLYLQMNSLRAEDTAVYYCARDYYGSSYWYFDVWGQGTLVTVSS VL: DIQMTQSPSSLSASVGDRVTITCTASESLYSSKHKVHYLAWYQQKPGKAPKLLIYGASNRLIGVPSRFSGSGSGTDFTLTISSLQPEDFATYYCAQFYWYPLTFGGGTKVEIK
0.49

Write down OD450 measured for item PcOxP_DB02_E03 (scFv, V domains shown, scFv in periplasmic extract) VH: EVQLLESGGGLVQPGGSLRLSCAASGFTFSDYYMEWVRQAPGKGLEWVAASRWKANDYTTEYADSVKGRFTISRDNSKNTLYLQMNSLRAEDTAVYYCARDYYGSSQWYFDVWGQGTLVTVSS VL: DIVMTQSPDSLAVSLGERATINCTASESLYSSKHKKNYLAWYQQKPGQPPKLLIYGASWRYIGVPDRFSGSGSGTDFTLTISSLQAEDVAVYYCAQFYSYPLTFGGGTKVEIK
0.39

Report OD450 for PcOxP_DB04_H10 (scFv, V domains shown, scFv in periplasmic extract) VH: EVQLLESGGGLVQPGGSLRLSCAASGATFSDFYVEWVRQAPGKGLEWVAASRNKANDYTTEYADSVKGRFTISRDNSKNTLYLQMNSLRAEDTAVYYCARDYYGSSYWYFDVWGQGTLVTVSS VL: DIQMTQSPSSLSASVGDRVTITCTASESLYSSKHKVHYLAWYQQKPGKAPKLLIYGPSNRYIGVPSRFSGSGSGTDFTLTISSLQPEDFATYYCAQFYSYPLTFGGGTKVEIK
0.54

Annotate the binder PcOxP_DB01_A04 (scFv, V domains shown, scFv in periplasmic extract) VH: EVQLLESGGGLVQPGGSLRLSCAASGFTHSDFYMEWVRQAPGKGLEWVAASRNKANDYTTEYADSVKGRFTISRDNSKNTLYLQMNSLRAEDTAVYYCARDYYGSSYWYFDVWGQGTLVTVSS VL: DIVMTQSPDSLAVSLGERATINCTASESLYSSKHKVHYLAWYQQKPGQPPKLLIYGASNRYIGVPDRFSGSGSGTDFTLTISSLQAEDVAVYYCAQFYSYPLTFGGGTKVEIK with its measured OD450.
0.31

Name the recorded OD450 of the item PcOxP_DB01_B06 (scFv, V domains shown, scFv in periplasmic extract) VH: EVQLLESGGGLVQPGGSLRLSCAASGFTFSSYYMEWVRQAPGKGLEWVAASRNKYNDYTTEYADSVKGRFTISRDNSKNTLYLQMNSLRAEDTAVYYCARDYYGSSTWYFDVWGQGTLVTVSS VL: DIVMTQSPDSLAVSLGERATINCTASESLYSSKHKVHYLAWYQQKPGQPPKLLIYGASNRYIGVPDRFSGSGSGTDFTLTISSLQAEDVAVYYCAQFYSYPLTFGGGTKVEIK in your answer.
0.79

Find the measured OD450 of PcOxP_DB01_G12 (scFv, V domains shown, scFv in periplasmic extract) VH: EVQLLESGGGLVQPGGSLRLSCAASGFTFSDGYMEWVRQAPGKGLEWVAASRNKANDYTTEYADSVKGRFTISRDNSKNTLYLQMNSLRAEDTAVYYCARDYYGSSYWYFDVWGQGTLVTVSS VL: DIQMTQSPSSLSASVGDRVTITCTASESLYSSKHKVHYLAWYQQKPGKAPKLLIYGASNRYFGVPSRFSGSGSGTDFTLTISSLQPEDFATYYCAQFYSYPLTFGGGTKVEIK and report it.
0.75

Identify OD450 associated with the binder PcOxP_DB02_E02 (scFv, V domains shown, scFv in periplasmic extract) VH: EVQLLESGGGLVQPGGSLRLSCAASGFTFSDEYMEWVRQAPGKGLEWVAASRNSGNSYTTAYADSVKGRFTISRDNSKNTLYLQMNSLRAEDTAVYYCARDYYGSSYWYFDVWGQGTLVTVSS VL: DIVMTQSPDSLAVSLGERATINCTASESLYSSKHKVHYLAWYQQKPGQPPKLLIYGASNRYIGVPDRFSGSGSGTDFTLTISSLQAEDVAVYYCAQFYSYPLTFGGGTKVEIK
0.09

Give reported OD450 value for PcOxP_DB02_F12 (scFv, V domains shown, scFv in periplasmic extract) VH: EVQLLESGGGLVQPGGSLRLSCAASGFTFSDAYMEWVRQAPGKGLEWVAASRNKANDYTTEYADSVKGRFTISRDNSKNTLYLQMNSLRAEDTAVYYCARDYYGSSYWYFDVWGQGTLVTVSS VL: DIQMTQSPSSLSASVGDRVTITCEASESLYSSKHKVHYLAWYQQKPGKAPKLLIYGASNRYPGVPSRFSGSGSGTDFTLTISSLQPEDFATYYCAQFYEYPLTFGGGTKVEIK
0.5
